- studySystem: human FPR1 (Homo sapiens (Human), UniProt P21462)
- Sequence (P21462 whole entry): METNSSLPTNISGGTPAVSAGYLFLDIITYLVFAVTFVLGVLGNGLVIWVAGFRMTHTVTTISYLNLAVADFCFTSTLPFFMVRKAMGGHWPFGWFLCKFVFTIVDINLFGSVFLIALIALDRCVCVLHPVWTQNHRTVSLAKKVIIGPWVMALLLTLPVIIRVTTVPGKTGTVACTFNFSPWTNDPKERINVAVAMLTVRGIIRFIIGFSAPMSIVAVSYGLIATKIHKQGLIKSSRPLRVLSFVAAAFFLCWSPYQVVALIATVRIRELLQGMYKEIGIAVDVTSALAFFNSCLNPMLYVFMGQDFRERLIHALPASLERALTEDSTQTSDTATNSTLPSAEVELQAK
- methodNotes: FPR1 cyclic adenosine monophosphate (cAMP) assay
- Type: cell-based
- conditionDetails: CHO cells overexpressing human FPR1; forskolin 10 µM; inhibition of cAMP production; read-out: hFPR1 cAMP EC50
Exercise: for every item that follows, state its recorded EC50.
Please give a number only; it is taken to be in nM.

Can you look up the measured EC50 of COc1cc(F)c([C@@H]2CN(c3c(C)ccn(C(F)(F)CO)c3=O)C(=O)[C@H]2NC(=O)c2ccc(OC(F)F)cc2)c(F)c1 for me?
17

Please report the recorded EC50 for COc1cc(F)c([C@H]2[C@H](NC(=O)c3ccc(Cl)cc3)C(=O)N(c3cccc(N4CC[C@@H](O)C4)n3)[C@@H]2C)c(F)c1 .
330

Any idea what its EC50 is? The compound is COc1cc(F)c([C@@H]2CN(c3cc(OCC4CCCO4)ncn3)C(=O)[C@H]2NC(=O)c2ccc(Cl)cc2)c(F)c1 (stereo partly drawn)
60

EC50 for COc1cc(F)c([C@@H]2CN(c3cccn4cc(C5CC5)nc34)C(=O)[C@H]2NC(=O)c2ccc(Cl)cc2)c(F)c1 ?
860

Give the measured EC50 of COc1cc(F)c([C@@H]2CN(c3nc(NC4CCOC4)ccc3F)C(=O)[C@H]2NC(=O)c2ccc(OC(F)F)cc2)c(F)c1 (stereo partly drawn) [Example 122] .
1080

What does the record list as EC50 for COc1cc(F)c([C@@H]2CN(c3nccc(NCCS(C)(=O)=O)c3C(F)(F)F)C(=O)[C@H]2NC(=O)c2ccc(Cl)cc2)c(F)c1 ?
1900

* * *

- studySystem: human FPR2 (Homo sapiens (Human), UniProt P25090)
- Sequence (P25090 whole entry): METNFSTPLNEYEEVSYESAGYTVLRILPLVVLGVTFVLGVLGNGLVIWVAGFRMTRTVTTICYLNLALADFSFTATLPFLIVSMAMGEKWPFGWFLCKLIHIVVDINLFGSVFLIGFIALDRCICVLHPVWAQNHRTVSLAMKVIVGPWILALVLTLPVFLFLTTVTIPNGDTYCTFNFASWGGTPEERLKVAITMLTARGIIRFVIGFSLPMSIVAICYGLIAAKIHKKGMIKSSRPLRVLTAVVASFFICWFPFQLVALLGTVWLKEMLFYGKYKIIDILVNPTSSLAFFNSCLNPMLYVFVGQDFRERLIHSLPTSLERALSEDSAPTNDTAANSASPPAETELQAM
- methodNotes: FPR2 cyclic adenosine monophosphate (cAMP) assay
- conditionDetails: CHO cells overexpressing human FPR2; forskolin 5 µM; inhibition of cAMP production; read-out: hFPR2 cAMP2 EC50
- Experimental: N-formyl peptide receptors (FPRs) are a family of chemo attractant receptors that facilitate leukocyte response during inflammation. FPRs belong to the seven-transmembrane G protein-coupled receptor superfamily and are linked to inhibitory G-proteins (Gi). […] FPR2 and FPR1 Cyclic Adenosine Monophosphate (cAMP) Assays. […] The level of intracellular cAMP was determined using the HTRF HiRange cAMP assay reagent kit (Cisbio) according to manufacturer’s instruction. […]
recordedEndpoint: EC50 (nM)
Report the figure in nM without appending any unit label.

Please report the recorded EC50 for COCC(CO)n1cccc(N2C[C@@H](c3ccc(OC)cc3)[C@H](NC(=O)c3ccc(Cl)cc3)C2=O)c1=O (stereo partly drawn) [Example 397] .
2.7

Please give the measured EC50 for this compound: COc1ccc([C@@H]2CN(c3c(C)ccn(CCO)c3=O)C(=O)[C@H]2NC(=O)c2ccc(Cl)cc2)c(F)c1 [Example 394]
1.9

So what does the record say about EC50 for COc1cc(F)c([C@@H]2CN(c3cccn(C(F)F)c3=O)C(=O)[C@H]2NC(=O)c2ccc(OC(F)F)cc2)c(F)c1 [Example 52] ?
1.3

Reported EC50 for CCn1cccc(N2C[C@@H](c3c(F)cc(OC)cc3F)[C@H](NC(=O)c3ccc(OC(F)F)cc3)C2=O)c1=O [Example 38] : what is it?
5.1

Bench note: what EC50 did COc1cc(F)c([C@@H]2CN(c3nc(N4C[C@@H]5C[C@H]4CN5C)ccc3OC)C(=O)[C@H]2NC(=O)c2ccc(OC(F)F)cc2)c(F)c1 [Example 328] show?
12

Fill in: EC50 of COc1cc(F)c([C@@H]2CN(c3c(C)ccn(CCS(C)(=O)=O)c3=O)C(=O)[C@H]2NC(=O)c2ccc(OC(F)F)cc2)c(F)c1 [Example 470] is ___
1.9
